assayName: Microsomal stability in dog liver microsomes assessed as parent compound remaining pretreated with compound upto 60 mins followed by NADPH addition and measured after 60 mins by LC/MS analysis
Type: ADME, Canis lupus familiaris, Microsome
conditionContext: time < 120 min, read-out: Stability
remaining at 2 h overview
valueType: remaining at 2 h (%)

• CC(C)N/N=C/c1ccc(-c2ccc(N3C[C@H](CO)OC3=O)cc2F)cn1 = 76.7
• O=C1O[C@@H](CO)CN1c1ccc(-c2ccc(/C=N/N3CCCCC3)nc2)c(F)c1 = 67.4
• O=C1O[C@@H](CO)CN1c1ccc(-c2ccc(/C=N/N3CCS(=O)(=O)CC3)nc2)c(F)c1 = 97
• O=C1O[C@@H](CO)CN1c1ccc(-c2ccc(/C=N/N3CCOCC3)nc2)c(F)c1 = 96.8
• CC(=O)NC[C@H]1CN(c2ccc(N3CCOCC3)c(F)c2)C(=O)O1 = 97.8

###

assayName: Microsomal stability in mouse liver microsomes assessed as parent compound remaining pretreated with compound upto 60 mins followed by NADPH addition and measured after 60 mins by LC/MS analysis
Format: ADME, Microsome
conditionContext: liver microsomes, time < 120 min, read-out: Stability
remaining at 2 h overview
valueType: remaining at 2 h

* CC(=O)NC[C@H]1CN(c2ccc(N3CCOCC3)c(F)c2)C(=O)O1 | 92.3%
* O=C1O[C@@H](CO)CN1c1ccc(-c2ccc(/C=N/N3CCOCC3)nc2)c(F)c1 | 96%
* O=C1O[C@@H](CO)CN1c1ccc(-c2ccc(/C=N/N3CCS(=O)(=O)CC3)nc2)c(F)c1 | 96%
* O=C1O[C@@H](CO)CN1c1ccc(-c2ccc(/C=N/N3CCCCC3)nc2)c(F)c1 | 75.2%

###

Papp A→B overview
assayName: Apparent permeability across apical to basolateral side in human Caco-2 cells
Type: ADME, cell-based
valueType: Papp A→B (×10⁻⁶ cm/s)

• O=C1O[C@@H](CO)CN1c1ccc(-c2ccc(/C=N/N3CCCCC3)nc2)c(F)c1 = 11.1
• CC(=O)NC[C@H]1CN(c2ccc(-c3ccc(/C=N/N4CCS(=O)(=O)CC4)nc3)c(F)c2)C(=O)O1 = 0.27
• O=C1O[C@@H](CO)CN1c1ccc(-c2ccc(/C=N/N3CCOCC3)nc2)c(F)c1 = 36.7

###

assayName: Elimination half life in Sprague-Dawley rat at 10 mg/kg, IG measured upto 24 hrs by LC-MS analysis
Type: ADME, organism-based
conditionContext: in vivo, po, read-out: beta t1/2 (converted)
valueType: half-life (h)

* O=C1O[C@@H](CO)CN1c1ccc(-c2ccc(/C=N/N3CCS(=O)(=O)CC3)nc2)c(F)c1 | 4.28
* O=C1O[C@@H](CO)CN1c1ccc(-c2ccc(/C=N/N3CCCCC3)nc2)c(F)c1 | 2.72
* CC(=O)NC[C@H]1CN(c2ccc(-c3ccc(/C=N/N4CCS(=O)(=O)CC4)nc3)c(F)c2)C(=O)O1 | 2.57
* CC(C)N/N=C/c1ccc(-c2ccc(N3C[C@H](CO)OC3=O)cc2F)cn1 | 1.94
* CC(=O)NC[C@H]1CN(c2ccc(N3CCOCC3)c(F)c2)C(=O)O1 [LINEZOLID] | 1.08
* O=C1O[C@@H](CO)CN1c1ccc(-c2ccc(/C=N/N3CCOCC3)nc2)c(F)c1 | 1.49

###

assayName: Clearance in Sprague-Dawley rat at 1 mg/kg, iv measured upto 24 hrs by LC-MS analysis
Type: ADME, organism-based
conditionContext: in vivo
valueType: clearance (mL/min/kg)

• O=C1O[C@@H](CO)CN1c1ccc(-c2ccc(/C=N/N3CCCCC3)nc2)c(F)c1 = 11.6
• O=C1O[C@@H](CO)CN1c1ccc(-c2ccc(/C=N/N3CCOCC3)nc2)c(F)c1 = 14
• O=C1O[C@@H](CO)CN1c1ccc(-c2ccc(/C=N/N3CCS(=O)(=O)CC3)nc2)c(F)c1 = 14.7
• CC(=O)NC[C@H]1CN(c2ccc(N3CCOCC3)c(F)c2)C(=O)O1 = 24.7
• CC(C)N/N=C/c1ccc(-c2ccc(N3C[C@H](CO)OC3=O)cc2F)cn1 = 10.3
• CC(=O)NC[C@H]1CN(c2ccc(-c3ccc(/C=N/N4CCS(=O)(=O)CC4)nc3)c(F)c2)C(=O)O1 = 12.9

###

assayName: Stability in rat plasma assessed as parent compound remaining at 37 degreeC measured upto 60 mins by HPLC analysis
Format: ADME, cell-free
conditionContext: read-out: Stability
remaining at 1 h overview
valueType: remaining at 1 h (%)

- O=C1O[C@@H](CO)CN1c1ccc(-c2ccc(/C=N/N3CCOCC3)nc2)c(F)c1: 103
- O=C1O[C@@H](CO)CN1c1ccc(-c2ccc(/C=N/N3CCS(=O)(=O)CC3)nc2)c(F)c1: 106
- O=C1O[C@@H](CO)CN1c1ccc(-c2ccc(/C=N/N3CCCCC3)nc2)c(F)c1: 104
- CC(C)N/N=C/c1ccc(-c2ccc(N3C[C@H](CO)OC3=O)cc2F)cn1: 102
- CC(=O)NC[C@H]1CN(c2ccc(N3CCOCC3)c(F)c2)C(=O)O1: 107

###

assayName: AUC (0 to t) in ICR mouse at 10 mg/kg, IG measured upto 24 hrs by LC-MS analysis
Format: ADME, organism-based
conditionContext: in vivo, po
valueType: AUC(0-t) at 24 h (ng·h/mL)

• O=C1O[C@@H](CO)CN1c1ccc(-c2ccc(/C=N/N3CCOCC3)nc2)c(F)c1 = 29300
• CC(C)N/N=C/c1ccc(-c2ccc(N3C[C@H](CO)OC3=O)cc2F)cn1 = 613
• O=C1O[C@@H](CO)CN1c1ccc(-c2ccc(/C=N/N3CCCCC3)nc2)c(F)c1 = 4740
• CC(=O)NC[C@H]1CN(c2ccc(N3CCOCC3)c(F)c2)C(=O)O1 = 24000

###

assayName: Microsomal stability in human liver microsomes assessed as parent compound remaining pretreated with compound upto 60 mins followed by NADPH addition and measured after 60 mins by LC/MS analysis
Assay type: ADME, Microsome
conditionContext: liver microsomes, time < 120 min, read-out: Stability
valueType: remaining at 2 h (%)

• CC(C)N/N=C/c1ccc(-c2ccc(N3C[C@H](CO)OC3=O)cc2F)cn1 = 85.8
• CC(=O)NC[C@H]1CN(c2ccc(N3CCOCC3)c(F)c2)C(=O)O1 = 102
• O=C1O[C@@H](CO)CN1c1ccc(-c2ccc(/C=N/N3CCS(=O)(=O)CC3)nc2)c(F)c1 = 98.7
• O=C1O[C@@H](CO)CN1c1ccc(-c2ccc(/C=N/N3CCOCC3)nc2)c(F)c1 = 66.2

###

Vd overview
assayName: Apparent volume of distribution in Sprague-Dawley rat at 1 mg/kg, iv measured upto 24 hrs by LC-MS analysis
Type: ADME, organism-based
conditionContext: in vivo, read-out: Vz
valueType: Vd (L/kg)

* O=C1O[C@@H](CO)CN1c1ccc(-c2ccc(/C=N/N3CCCCC3)nc2)c(F)c1 | 1.06
* O=C1O[C@@H](CO)CN1c1ccc(-c2ccc(/C=N/N3CCOCC3)nc2)c(F)c1 | 0.81
* CC(=O)NC[C@H]1CN(c2ccc(-c3ccc(/C=N/N4CCS(=O)(=O)CC4)nc3)c(F)c2)C(=O)O1 | 0.58
* O=C1O[C@@H](CO)CN1c1ccc(-c2ccc(/C=N/N3CCS(=O)(=O)CC3)nc2)c(F)c1 | 0.73
* CC(C)N/N=C/c1ccc(-c2ccc(N3C[C@H](CO)OC3=O)cc2F)cn1 | 0.72
* CC(=O)NC[C@H]1CN(c2ccc(N3CCOCC3)c(F)c2)C(=O)O1 | 0.75

###

assayName: Microsomal stability in monkey liver microsomes assessed as parent compound remaining pretreated with compound upto 60 mins followed by NADPH addition and measured after 60 mins by LC/MS analysis
Format: ADME, Macaca mulatta, Microsome
conditionContext: rhesus monkey, time < 120 min, read-out: Stability
valueType: remaining at 2 h (%)

* CC(=O)NC[C@H]1CN(c2ccc(N3CCOCC3)c(F)c2)C(=O)O1 | 99.4
* O=C1O[C@@H](CO)CN1c1ccc(-c2ccc(/C=N/N3CCCCC3)nc2)c(F)c1 | 59
* O=C1O[C@@H](CO)CN1c1ccc(-c2ccc(/C=N/N3CCOCC3)nc2)c(F)c1 | 93.3
* CC(C)N/N=C/c1ccc(-c2ccc(N3C[C@H](CO)OC3=O)cc2F)cn1 | 66
* O=C1O[C@@H](CO)CN1c1ccc(-c2ccc(/C=N/N3CCS(=O)(=O)CC3)nc2)c(F)c1 | 98.8

###

systemUnderTest: Cytochrome P450 3A4 (Homo sapiens, UniProt P08684)
Sequence (P08684 whole entry): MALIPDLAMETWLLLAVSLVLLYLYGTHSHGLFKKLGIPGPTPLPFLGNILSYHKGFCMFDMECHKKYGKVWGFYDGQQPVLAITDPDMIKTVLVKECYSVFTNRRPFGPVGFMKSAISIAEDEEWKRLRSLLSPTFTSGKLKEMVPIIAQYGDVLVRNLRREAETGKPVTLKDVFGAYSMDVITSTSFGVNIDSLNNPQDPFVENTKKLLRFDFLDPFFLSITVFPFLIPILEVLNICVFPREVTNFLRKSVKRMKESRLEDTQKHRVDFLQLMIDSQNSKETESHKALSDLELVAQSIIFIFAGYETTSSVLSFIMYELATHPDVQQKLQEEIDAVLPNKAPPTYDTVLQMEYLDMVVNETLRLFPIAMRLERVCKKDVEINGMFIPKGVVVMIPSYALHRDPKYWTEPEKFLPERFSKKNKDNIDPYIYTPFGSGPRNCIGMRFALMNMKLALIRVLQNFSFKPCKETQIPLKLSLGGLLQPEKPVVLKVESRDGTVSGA
IC50 overview
valueType: IC50

• CC(=O)NC[C@H]1CN(c2ccc(N3CCOCC3)c(F)c2)C(=O)O1 = > 30 µM
• O=C1O[C@@H](CO)CN1c1ccc(-c2ccc(/C=N/N3CCOCC3)nc2)c(F)c1 = > 30 µM
• O=C1O[C@@H](CO)CN1c1ccc(-c2ccc(/C=N/N3CCS(=O)(=O)CC3)nc2)c(F)c1 = > 30 µM
• O=C1O[C@@H](CO)CN1c1ccc(-c2ccc(/C=N/N3CCCCC3)nc2)c(F)c1 = > 30 µM
• CC(C)N/N=C/c1ccc(-c2ccc(N3C[C@H](CO)OC3=O)cc2F)cn1 = 16.5 µM
